// compounds with reported IC50 on Lysine-specific demethylase 5C (Homo sapiens, UniProt P41229), multi-publication
Sequence (P41229 whole entry): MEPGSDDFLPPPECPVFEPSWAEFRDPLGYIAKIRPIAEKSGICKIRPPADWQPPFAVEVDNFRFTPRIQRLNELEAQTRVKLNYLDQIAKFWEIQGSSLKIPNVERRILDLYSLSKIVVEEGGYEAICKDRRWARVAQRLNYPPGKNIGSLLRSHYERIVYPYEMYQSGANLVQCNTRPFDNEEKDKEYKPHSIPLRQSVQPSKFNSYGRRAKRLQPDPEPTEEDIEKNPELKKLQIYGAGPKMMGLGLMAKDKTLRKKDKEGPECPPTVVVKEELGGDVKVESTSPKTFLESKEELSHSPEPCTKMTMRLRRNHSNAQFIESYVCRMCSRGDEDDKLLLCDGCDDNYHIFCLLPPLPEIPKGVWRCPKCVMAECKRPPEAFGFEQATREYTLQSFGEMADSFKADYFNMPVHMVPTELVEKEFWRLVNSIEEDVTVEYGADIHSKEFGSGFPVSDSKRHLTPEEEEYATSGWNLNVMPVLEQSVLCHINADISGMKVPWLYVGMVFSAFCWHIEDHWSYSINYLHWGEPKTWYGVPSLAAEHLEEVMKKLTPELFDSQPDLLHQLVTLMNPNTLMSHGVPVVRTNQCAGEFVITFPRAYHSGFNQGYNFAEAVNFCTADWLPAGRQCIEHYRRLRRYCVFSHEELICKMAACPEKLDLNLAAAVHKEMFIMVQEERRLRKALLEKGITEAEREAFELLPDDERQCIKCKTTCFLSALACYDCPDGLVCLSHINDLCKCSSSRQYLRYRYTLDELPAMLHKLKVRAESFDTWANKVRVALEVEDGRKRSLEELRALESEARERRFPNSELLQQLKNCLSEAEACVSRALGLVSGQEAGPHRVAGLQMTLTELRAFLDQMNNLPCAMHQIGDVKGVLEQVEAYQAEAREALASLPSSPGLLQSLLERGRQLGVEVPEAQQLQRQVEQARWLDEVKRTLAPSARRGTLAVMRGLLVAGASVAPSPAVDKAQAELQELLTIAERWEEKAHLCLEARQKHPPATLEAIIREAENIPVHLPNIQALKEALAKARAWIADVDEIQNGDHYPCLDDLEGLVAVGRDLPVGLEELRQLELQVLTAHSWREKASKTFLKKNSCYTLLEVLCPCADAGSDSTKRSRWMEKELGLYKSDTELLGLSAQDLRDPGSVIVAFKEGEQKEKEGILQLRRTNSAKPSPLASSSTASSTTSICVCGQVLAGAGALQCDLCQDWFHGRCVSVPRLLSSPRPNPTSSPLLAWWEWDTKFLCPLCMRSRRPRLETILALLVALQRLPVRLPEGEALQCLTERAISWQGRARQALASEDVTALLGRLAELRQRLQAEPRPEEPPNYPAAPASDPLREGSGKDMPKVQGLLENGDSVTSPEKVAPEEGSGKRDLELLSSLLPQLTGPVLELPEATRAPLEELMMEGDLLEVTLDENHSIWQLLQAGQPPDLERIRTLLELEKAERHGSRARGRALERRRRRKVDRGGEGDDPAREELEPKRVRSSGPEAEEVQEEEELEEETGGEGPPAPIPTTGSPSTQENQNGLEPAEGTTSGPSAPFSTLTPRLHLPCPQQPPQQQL
Give the number; nM is assumed, so skip it.

# compound, IC50 / nM
records = [
    ("O=C(O)CCC(=O)NO", 1900),
]

Measured IC50 of `CCCCCCN(C)CCc1ccc(-c2[nH]c3c(C#N)cnn3c(=O)c2C(C)C)cc1` : 6.24

Measured IC50 of N[C@H]1C[C@@H]1c1ccc(NC(=O)CCCNC(=O)c2ccc(O)c3ncccc23)cc1 (relative stereo) : 35000

Measured IC50 of COC(=O)c1ccnc(-c2cc(C(=O)Nc3ccc([C@@H]4C[C@H]4N)cc3)ccn2)c1.Cl (relative stereo) : 8500
